test description: Plasma pharmacokinetics in rats after tracheal nebulization, intravenous injection and oral gavage (Example 1)
Assay type: in vivo, SD rats
condition notes: male, Sprague-Dawley, inhaled; rat plasma; tracheal nebulization (inh) 3.2 mg/kg
quantity: AUC(0-t) (ng·h/mL)
Answers are plain numbers, in ng·h/mL.

Entry under test: O=C(O[C@@H]1Cc2c(O)cc(O)cc2O[C@@H]1c1cc(O)c(O)c(O)c1)c1cc(O)c(O)c(O)c1 [EGCG, (-)-Epigallocatechin gallate] . Its AUC(0-t) was 1120

---

test description: Plasma pharmacokinetics in rats after tracheal nebulization, intravenous injection and oral gavage (Example 1)
Type: in vivo, SD rats
condition notes: male, Sprague-Dawley; rat plasma; oral gavage (po) 60 mg/kg
quantity: Cmax (ng/mL)
One number for each entry, in ng/mL.

Entry under test: O=C(O[C@@H]1Cc2c(O)cc(O)cc2O[C@@H]1c1cc(O)c(O)c(O)c1)c1cc(O)c(O)c(O)c1 [EGCG, (-)-Epigallocatechin gallate] . Its Cmax was 118

---

test description: Plasma pharmacokinetics in rats after tracheal nebulization, intravenous injection and oral gavage (Example 1)
Assay type: in vivo, SD rats
condition notes: male, Sprague-Dawley, inhaled; rat plasma; tracheal nebulization (inh) 3.2 mg/kg
quantity: Cmax (ng/mL)
Answers are plain numbers, in ng/mL.

Entry under test: O=C(O[C@@H]1Cc2c(O)cc(O)cc2O[C@@H]1c1cc(O)c(O)c(O)c1)c1cc(O)c(O)c(O)c1 [EGCG, (-)-Epigallocatechin gallate] . Its Cmax was 1120

---

test description: Plasma pharmacokinetics in rats after tracheal nebulization, intravenous injection and oral gavage (Example 1)
Assay type: in vivo, SD rats
condition notes: male, Sprague-Dawley, inhaled; rat plasma; tracheal nebulization (inh) 1.6 mg/kg
quantity: Cmax (µg/mL)
Give bare numbers, in µg/mL.

Entry under test: O=C(O[C@@H]1Cc2c(O)cc(O)cc2O[C@@H]1c1cc(O)c(O)c(O)c1)c1cc(O)c(O)c(O)c1 [EGCG, (-)-Epigallocatechin gallate] . Its Cmax was 0.298

---

test description: Plasma pharmacokinetics in rats after tracheal nebulization, intravenous injection and oral gavage (Example 1)
Type: in vivo, SD rats
condition notes: male, Sprague-Dawley; rat plasma; intravenous injection (iv) 3.2 mg/kg
quantity: AUC(0-t)

Entry under test: O=C(O[C@@H]1Cc2c(O)cc(O)cc2O[C@@H]1c1cc(O)c(O)c(O)c1)c1cc(O)c(O)c(O)c1 [EGCG, (-)-Epigallocatechin gallate] . Its AUC(0-t) was 1680 ng·h/mL

---

test description: Drug concentration in rat plasma and lungs after tracheal nebulization and oral gavage (Example 2)
Type: in vivo, rats
condition notes: lung and plasma, inhaled, after inhalation 0.8 mg/kg, read-out: drug concentration in the lungs relative to that in plasma (higher)
quantity: Kp
Give bare numbers.

Entry under test: O=C(O[C@@H]1Cc2c(O)cc(O)cc2O[C@@H]1c1cc(O)c(O)c(O)c1)c1cc(O)c(O)c(O)c1 [EGCG, (-)-Epigallocatechin gallate] . Its Kp was 100

---

test description: Drug concentration in rat plasma and lungs after tracheal nebulization and oral gavage (Example 2)
Assay type: in vivo, rats
condition notes: plasma, inhaled, tracheal nebulization (inh.0.8mg/kg)
quantity: Cmax (ng/mL)
One number for each entry, in ng/mL.

Entry under test: O=C(O[C@@H]1Cc2c(O)cc(O)cc2O[C@@H]1c1cc(O)c(O)c(O)c1)c1cc(O)c(O)c(O)c1 [EGCG, (-)-Epigallocatechin gallate] . Its Cmax was 153

Where these numbers come from: patent EP4623908A1
